This listing pairs compounds with measured DC50.
Biological target: Cbl-b (Homo sapiens)
Construct: Cbl-b-HiBit KI Jurkat Cells were purchased from Promega; host or cells: Cbl-b-HiBiT knock-in Jurkat cells
Sequence (Q13191 whole entry): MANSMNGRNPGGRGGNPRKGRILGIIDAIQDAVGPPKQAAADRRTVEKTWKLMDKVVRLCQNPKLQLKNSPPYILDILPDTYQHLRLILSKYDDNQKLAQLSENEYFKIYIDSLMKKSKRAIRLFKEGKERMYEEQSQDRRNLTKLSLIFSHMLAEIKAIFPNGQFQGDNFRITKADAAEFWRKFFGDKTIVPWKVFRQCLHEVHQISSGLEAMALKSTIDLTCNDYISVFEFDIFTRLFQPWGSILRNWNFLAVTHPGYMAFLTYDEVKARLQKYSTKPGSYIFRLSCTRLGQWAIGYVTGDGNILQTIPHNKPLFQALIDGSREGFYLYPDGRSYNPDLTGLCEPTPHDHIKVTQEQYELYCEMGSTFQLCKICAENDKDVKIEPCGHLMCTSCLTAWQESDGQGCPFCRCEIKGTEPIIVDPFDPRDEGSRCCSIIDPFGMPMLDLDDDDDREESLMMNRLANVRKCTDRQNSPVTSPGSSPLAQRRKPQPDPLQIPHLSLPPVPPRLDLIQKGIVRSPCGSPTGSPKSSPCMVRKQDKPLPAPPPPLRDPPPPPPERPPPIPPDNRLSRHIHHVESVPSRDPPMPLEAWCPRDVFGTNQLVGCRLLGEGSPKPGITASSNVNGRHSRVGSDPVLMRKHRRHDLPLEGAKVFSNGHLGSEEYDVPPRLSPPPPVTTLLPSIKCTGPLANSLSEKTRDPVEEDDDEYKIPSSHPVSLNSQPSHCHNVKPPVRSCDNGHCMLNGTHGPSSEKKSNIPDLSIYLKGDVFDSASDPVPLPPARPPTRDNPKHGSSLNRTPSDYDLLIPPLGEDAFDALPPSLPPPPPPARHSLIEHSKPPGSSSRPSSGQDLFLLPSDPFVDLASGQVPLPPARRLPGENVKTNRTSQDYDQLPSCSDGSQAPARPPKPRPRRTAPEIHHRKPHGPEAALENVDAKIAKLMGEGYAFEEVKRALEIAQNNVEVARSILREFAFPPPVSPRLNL
Assay: Cbl-b Degradation Method B (Nano-Glo HiBiT lytic detection)
Type: cell-based
Details: Cbl-b-HiBit KI Jurkat Cells, incubated at least 6-24 hours; half maximal degradation; read-out: Cbl-b Degredation Method B IC50
Procedure: Cbl-b Degradation Method B [table] Cbl-b-HiBit KI Jurkat Cells were purchased from Promega, and cell media consisted of RPMI 1640 with 10% […] and 1% pen/strep. The cells were counted, measured for viability, and 35 μL of the cell solution was seeded into 384 well flat bottom plates at a ratio of 20,000 cells per 35 μL. […] After incubation, 30 μL of either NanoGlo media was added to each cell, and the plates read on the Synergy Neo2 machine. […]

| Compound | DC50 |
| --- | --- |
| CC(C)n1c(=O)n(C2CCC(=O)NC2=O)c2ccc(N3CCC(O[C@H]4CC[C@H](CN5CCN(Cc6cc7c(c(C(F)(F)F)c6)CN(c6cccc([C@]8(Cc9nncn9C)C[C@@H](C#N)C8)c6)C7=O)C(C)(C)C5)CC4)CC3)cc21 (stereo partly drawn) | < 5 nM |
| Cn1cnnc1CC1(c2cccc(-n3cc4ccc(CN5CCN(C[C@H]6CC[C@H](OC7CCN(c8ccc9c(c8F)CN(C8CCC(=O)NC8=O)C9=O)CC7)CC6)CC5)cc4n3)c2)COC1 (stereo partly drawn) | > 500 nM |
| CC(C)n1c(=O)n(C2CCC(=O)NC2=O)c2cccc(N3CCC(O[C@H]4CC[C@H](CN5CCCN(Cc6cc7c(c(C(F)(F)F)c6)CN(c6cccc([C@]8(Cc9nncn9C)C[C@@H](C#N)C8)c6)C7=O)CC5)CC4)CC3)c21 (stereo partly drawn) | < 5 nM |

* * *

Target: Cbl-b (Homo sapiens)
Construct: Cbl-b-HiBit KI Jurkat Cells were purchased from Promega; host or cells: Cbl-b-HiBiT knock-in Jurkat cells
Experiment: Cbl-b Degradation Method A (FACS, anti-Cbl-b antibody staining)
Format: cell-based
Settings: Cbl-b-HiBit KI Jurkat Cells, incubated at least 20 hours; half maximal degradation; read-out: Cbl-b Degredation Method A IC50
Text: Cbl-b Degradation Method A Cbl-b-HiBit KI Jurkat Cells were purchased from Promega, and cell media consisted of RPMI 1640 with 10% FBS and 1% pen/strep. […] The concentration of an exemplary compound that leads to half maximal degradation (DC50) as well as the maximum degradation observed (Dmax, conventionally expressed as a percentage of control) is shown below in Table 2.
This listing pairs compounds with measured DC50.

| Compound | Measured Target | DC50 |
| --- | --- | --- |
| Cn1cnnc1CC1(c2cccc(N3Cc4c(cc(CN5CCN(C6CCN(CC7CCN(c8ccc9c(c8)C(=O)N(C8CCC(=O)NC8=O)C9=O)CC7)CC6)CC5)cc4C(F)(F)F)C3=O)c2)COC1 (stereo not drawn) [Example 104] | Cbl-b (Homo sapiens) | 0.05 to 0.5 µM |
| COC1CC(Cc2nncn2C)(c2cccc(N3Cc4c(cc(CN5CCN(C[C@H]6CC[C@H](OC7CCN(c8ccc9c(n8)C(C)N(C8CCC(=O)NC8=O)C9=O)CC7)CC6)CC5(C)C)cc4C(F)(F)F)C3=O)c2)C1 (stereo partly drawn) [Example 294] | Cbl-b (Homo sapiens) | 0.05 to 0.5 µM |
| Cn1cnnc1CC1(c2cccc(N3Cc4c(cc(CN5CCC(N6CCC7(CCN(c8ccc9c(c8)C(=O)N(C8CCC(=O)NC8=O)C9=O)CC7)CC6)CC5)cc4C(F)(F)F)C3=O)c2)COC1 (stereo not drawn) [Example 100] | Cbl-b (Homo sapiens) | > 0.5 µM |
